From: the nanobody polyreactivity screen of Harvey et al. (2022)

- Protocol details: yeast display, Sf9 membrane polyspecificity reagent, FACS + sequencing; frameworks hold sequencing errors
Readout: polyreactivity (PSR sort gate)

These recorded examples may help you get a feel for the data.
Ordered residues	polyreactivity (PSR sort gate)
QVQLVESGGGLVQAGGSLRLSCAASGFIFAVNAMGWYRQAPGKERELVATIRATTTSTYADSVKGRFTISRDNAKNTVYLQMNSLKPEDTAVYYCATDVRTISFEYDYWGQGTQVTVSS	low polyreactivity
QVQLVESGGGLVQAGGSLRLSCAASGSIFYINTMGWYRQAPGKEREMVATIRTSGGSTYADSVKGRFTISRDNAKNTVYLQMNSLKPEDTAVYYCAVRRYRSSSYGYYSWGQGTQVTVSS	high polyreactivity
QVQLVESGGGLVQAGGSLRLICAASGFIFLDYAMGWSRPAPGKERELVAAISSRGARTYYADSVKGRFTISRDNEKNTVYLQMNSLKPEDTAVYYCAARGPLDRYGYWGQGTQVTVSS	high polyreactivity
QVQLVESGGGLVQAGGSLRLSCAASGSIFLHNAMGWYRQAPGKERELVAGITSSGTSTYYADSVKGRFTISRDNEKNTVYLQMNSLKPEDTAVYYCAAYRYGSRGGYCGQGTQVTVSS	high polyreactivity
QVQLVESGGGLVHAGGSLRLSCAASGGIFPHNVMGWYRQAPGKEREMVAAITWSGGRTYYADSVKGRFTNSRDNAKNTVYFQLNSLKPEDTAVYYCAADPFYLTKSGGWGDYWGQGTQVTVSS	low polyreactivity
QVQLVESGGGLVQAGGSLRLSCAASGGTFDDYAMGWYRQAPGKERELVAAISSSGGSTYYADSVKGRITISRDNAKNTVYLEMNSLKPDDTAVYYCAVDAFWRHWYYPYESHHDYWGQGTQVTVSS	low polyreactivity
QVQLVESGGGLVQAGGSLRLSCAASGFNFPHYAMGWYIQAPGKERELVAAISWSGTRTYYADSVKGRFTISRDNAKNTVYLQMNSLKPEDTAVYYCNADSITEGNSRYSHFDYWGQGTQVTVSS	low polyreactivity
QVQLVESGGRLVQAGGSLRLSCAASGRIFTGYAMGWYRQAPGKERELVAAISSRGGSTYYADYVKVRFTISRDNAKNTVYLQMNSLKPEDTAVYYCNAYQWRHRYTMYYWGQGTQVTVSS	high polyreactivity
QVQLVESGGGLVQAGGSLLLTCAASGRIISLYAMGWYRQAPGKERELVAGISGGTIKYYADSLKGRFTISRDNAKNTVYLQMNSLKAEDTAVYYCAAKPTYRGYGYGSWGHGTQVTVSS	low polyreactivity
QVQLVESGGGLVQAGGSLRLSCAASGSIIRRYAMGWYRQAPGKERELVAAISSNGGSTYYADSVKGRFTISRDNAKNTVYLQMNSLKPEDTAVYYCNKLSSYVVARRTTEYDYWGQGTQVTVSS	high polyreactivity

Below: the item to evaluate.
Lab note: QVQLVESGGGLVQARGSLRLSCAASGRTFVVYDMGWYRPAPGKERALVAAITWSGGSTYYADSVKGRFTSSRDTAKNTVYLQMHSLKPEDTAVYYCAAGYYYFWTYAYWGQGTQVTVSS gave polyreactivity (PSR sort gate) of low polyreactivity
